Data provenance is patent US20240217968A1.

Molecular target: recombinant human Flag-tagged PARP7 (amino acids 456-657) (Homo sapiens, UniProt Q7Z3E1)
Construct: recombinant human Flag-tagged PARP7 (amino acids 456-657)
Test: PARP7 biochemical DELFIA assay (auto-MARylation)
Conditions: DELFIA readout, IC50 class
Readout: IC50

Query IC50 for O=C(CCOCCc1cccc2c(=O)[nH]ncc12)N1CCC(c2nc3ccccc3o2)CC1
≤ 100 nM

Query IC50 for CC(COCCC(=O)N1CCN(c2ncc(F)cc2F)CC1)n1nc(C(F)(F)F)c2c(=O)[nH]ncc21 (stereo not drawn) [Compound 349]
≤ 100 nM

Query IC50 for CC(COCCC(=O)N1CCN(c2ncccc2Cl)CC1)n1nc(C(F)(F)F)c2c(=O)[nH]ncc21 (single isomer, unassigned) [Compound 356]
100 to 1000 nM

Query IC50 for CC(COCCC(=O)N1CCN(c2ncc(C(F)(F)F)cn2)CC1)n1ccc2c(=O)[nH]ncc21 (stereo not drawn) [Compound 76]
100 to 1000 nM

Query IC50 for N#Cc1ccc2oc(N3CCN(C(=O)CCOCCn4nc(C(F)(F)F)c5c(=O)[nH]ncc54)CC3)nc2c1
≤ 100 nM

Query IC50 for CC(COCCC(=O)N1CCN(c2ncc(F)cc2F)CC1)n1nc(C(F)(F)F)c2c(=O)[nH]ncc21 (single isomer, unassigned) [Compound 350]
≤ 100 nM

Query IC50 for N#Cc1ccc(N2CCN(C(=O)c3cccc(Oc4cccc5c(=O)[nH]ncc45)c3)CC2)nc1
100 to 1000 nM

Query IC50 for CC(COCCC(=O)N1CCN(c2cc(Cl)c(F)cn2)CC1)n1nc(C(F)(F)F)c2c(=O)[nH]ncc21 (single isomer, unassigned) [Compound 444]
≤ 100 nM

Query IC50 for O=C(c1cccc(Cn2cc(C(F)(F)F)c3c(=O)[nH]ncc32)c1)N1CCN(c2ncc(C(F)(F)F)cn2)CC1
≤ 100 nM

Query IC50 for O=C(CCOCCc1cccc2c(=O)[nH]ccc12)N1CCN(c2ncc(C(F)(F)F)cn2)CC1
≤ 100 nM

Query IC50 for Cc1c(C(F)(F)F)c2c(=O)[nH]ncc2n1C(C)COCCC(=O)N1CCN(c2ncc(C(F)(F)F)cn2)CC1 (stereo not drawn) [Compound 475]
≤ 100 nM

Query IC50 for O=C1NC(=O)c2c(CCOCCC(=O)N3CCN(c4ncc(C(F)(F)F)cn4)CC3)cccc21
100 to 1000 nM

Query IC50 for CC(COCCC(=O)N1CCN(c2nnc(C(F)(F)F)s2)CC1)n1nc(C(F)(F)F)c2c(=O)[nH]ncc21 (stereo not drawn) [Compound 292]
≤ 100 nM

Query IC50 for O=C(CCOCCc1cccc2c(=O)[nH]nnc12)N1CCN(c2ncc(C(F)(F)F)cn2)CC1
100 to 1000 nM

Query IC50 for O=C1NCCc2c(CCOCCC(=O)N3CCN(c4ncc(C(F)(F)F)cn4)CC3)cccc21
100 to 1000 nM

----------
Molecular target: recombinant human Flag-tagged PARP7 (amino acids 456-657) (Homo sapiens)
Construct: recombinant human Flag-tagged PARP7 (amino acids 456-657)
Experiment: PARP7 biochemical DELFIA assay (auto-MARylation)
Settings: DELFIA readout, IC50 class
I'd be grateful if you could share measured IC50 for these entries.

Report measured IC50 on recombinant human Flag-tagged PARP7 (amino acids 456-657) (Homo sapiens); entry: CC(COCCC(=O)N1CCN(c2ncc(OC(F)F)cn2)CC1)n1nc(C(F)(F)F)c2c(=O)[nH]ncc21 (single isomer, unassigned) [Compound 294]
≤ 100 nM

Report measured IC50 on recombinant human Flag-tagged PARP7 (amino acids 456-657) (Homo sapiens); entry: O=C(CCOCCn1cc(C(F)(F)F)c2c(=O)[nH]ncc21)N1CCN(c2nc(C(F)(F)F)co2)CC1
≤ 100 nM

Report measured IC50 on recombinant human Flag-tagged PARP7 (amino acids 456-657) (Homo sapiens); entry: O=C1NCNc2c(OCCOCC(=O)N3CCN(c4ncc(C(F)(F)F)cn4)CC3)cccc21
1000 to 10000 nM

Report measured IC50 on recombinant human Flag-tagged PARP7 (amino acids 456-657) (Homo sapiens); entry: CC(COCCC(=O)N1CCN(c2ncc(C(F)(F)F)cn2)CC1)n1c(=O)n(C)c2c(=O)[nH]ncc21 (stereo not shown) [Compound 398]
≤ 100 nM

Report measured IC50 on recombinant human Flag-tagged PARP7 (amino acids 456-657) (Homo sapiens); entry: CC(COCCC(=O)N1CCN(c2ccc(Cl)cn2)CC1)n1cc(C(F)(F)F)c2c(=O)[nH]ncc21 (stereo not shown) [Compound 374]
≤ 100 nM

Report measured IC50 on recombinant human Flag-tagged PARP7 (amino acids 456-657) (Homo sapiens); entry: N#Cc1ccc(N2CCN(C(=O)c3cccc(OCc4cccc5c(=O)[nH]ncc45)c3)CC2)nc1
1000 to 10000 nM

Report measured IC50 on recombinant human Flag-tagged PARP7 (amino acids 456-657) (Homo sapiens); entry: O=C(CCOCCn1nc(C(F)(F)F)c2c(=O)[nH]ncc21)N1CCN(c2ncc3c(n2)NCCC3)CC1
≤ 100 nM

----------
Target: recombinant human Flag-tagged PARP7 (amino acids 456-657) (Homo sapiens, UniProt Q7Z3E1)
Construct: recombinant human Flag-tagged PARP7 (amino acids 456-657)
Assay: PARP7 biochemical DELFIA assay (auto-MARylation)
Conditions: DELFIA readout, IC50 class
Readout: IC50

Query IC50 for Cc1c(C)n(C(C)COCCC(=O)N2CCN(c3ncc(C(F)(F)F)cn3)CC2)c2cn[nH]c(=O)c12 (single isomer, unassigned) [Compound 366]
≤ 100 nM

Query IC50 for N#Cc1ccc(N2CCN(C(=O)CCOCCn3ncc4c(=O)[nH]ncc43)CC2)nc1
100 to 1000 nM

Query IC50 for CNC(=O)c1ccc(N2CCN(C(=O)CCOCC(C)n3nc(C(F)(F)F)c4c(=O)[nH]ncc43)CC2)nc1 (single isomer, unassigned) [Compound 305]
≤ 100 nM

----------
I'd be grateful if you could share measured IC50 for these entries.
Molecular target: recombinant human Flag-tagged PARP7 (amino acids 456-657) (Homo sapiens, UniProt Q7Z3E1)
Construct: recombinant human Flag-tagged PARP7 (amino acids 456-657)
Assay: PARP7 biochemical DELFIA assay (auto-MARylation)
Conditions: DELFIA readout, IC50 class

Query IC50 for CC(OCCCC(=O)N1CCN(c2ncc(C(F)(F)F)cn2)CC1)c1cc(Cl)cc2c(=O)[nH]ncc12 (single isomer, unassigned) [Compound 174]
≤ 100 nM

Query IC50 for O=C(CCCCOc1cccc2c(=O)[nH]ncc12)N1CCN(c2ncc(C(F)(F)F)cn2)CC1 [Compound 35]
100 to 1000 nM

Query IC50 for Cc1cnc(N2CCN(C(=O)CCOCC(C)n3nc(C(F)(F)F)c4c(=O)[nH]ncc43)CC2)nc1 (stereo not shown) [Compound 286]
≤ 100 nM

Query IC50 for Cc1nn(CCOCCC(=O)N2CCN(c3ncc(C(F)(F)F)cn3)C(C)C2)c2cn[nH]c(=O)c12 (single isomer, unassigned) [Compound 255]
≤ 100 nM

Query IC50 for CC(COCCC(=O)N1CCN(c2ncc(C#N)cn2)CC1)n1nc(C(F)F)c2c(=O)[nH]ncc21 (single isomer, unassigned) [Compound 491]
≤ 100 nM

Query IC50 for CC(COCCC(=O)N1CCN(c2ncc(C#N)o2)CC1)n1nc(C(F)(F)F)c2c(=O)[nH]ncc21 (stereo not shown) [Compound 330]
≤ 100 nM

Query IC50 for O=C(CCOCCc1cc(C(F)(F)F)cc2c(=O)[nH]ncc12)N1CCN(c2ncc(C(F)(F)F)cn2)CC1 [Compound 69]
100 to 1000 nM

----------
Molecular target: recombinant human Flag-tagged PARP7 (amino acids 456-657) (Homo sapiens, UniProt Q7Z3E1)
Construct: recombinant human Flag-tagged PARP7 (amino acids 456-657)
Sequence (Q7Z3E1 456-657): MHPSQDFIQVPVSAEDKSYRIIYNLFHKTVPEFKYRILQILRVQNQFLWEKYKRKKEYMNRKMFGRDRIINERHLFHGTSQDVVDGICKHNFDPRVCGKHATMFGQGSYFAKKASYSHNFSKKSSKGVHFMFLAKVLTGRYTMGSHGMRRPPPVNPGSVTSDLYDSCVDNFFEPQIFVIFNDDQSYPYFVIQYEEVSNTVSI
Assay: PARP7 biochemical DELFIA assay (auto-MARylation)
Conditions: DELFIA readout, IC50 class
Readout: IC50

Query IC50 for N#Cc1ccc2oc(N3CCN(C(=O)CCOCCc4cccc5c(=O)[nH]ncc45)CC3)nc2c1
≤ 100 nM

Query IC50 for N#Cc1ccc(N2CCN(C(=O)c3cccc(CN4CCc5c4cn[nH]c5=O)c3)CC2)nc1
1000 to 10000 nM

Query IC50 for N#Cc1ccc(N2CCN(C(=O)c3cccc(OCCc4cccc5c(=O)[nH]ncc45)c3)CC2)nc1
≤ 100 nM

Query IC50 for O=C(Cn1nc(C(F)(F)F)c2c(=O)[nH]ncc21)N1CCC(C(=O)N2CCN(c3ncc(C(F)(F)F)cn3)CC2)C1 (stereo not shown) [Compound 443]
1000 to 10000 nM
